- targetOrSystem: Nuclear receptor ROR-gamma (Homo sapiens)
- Sequence (P51449 whole entry, the tested form may be a part): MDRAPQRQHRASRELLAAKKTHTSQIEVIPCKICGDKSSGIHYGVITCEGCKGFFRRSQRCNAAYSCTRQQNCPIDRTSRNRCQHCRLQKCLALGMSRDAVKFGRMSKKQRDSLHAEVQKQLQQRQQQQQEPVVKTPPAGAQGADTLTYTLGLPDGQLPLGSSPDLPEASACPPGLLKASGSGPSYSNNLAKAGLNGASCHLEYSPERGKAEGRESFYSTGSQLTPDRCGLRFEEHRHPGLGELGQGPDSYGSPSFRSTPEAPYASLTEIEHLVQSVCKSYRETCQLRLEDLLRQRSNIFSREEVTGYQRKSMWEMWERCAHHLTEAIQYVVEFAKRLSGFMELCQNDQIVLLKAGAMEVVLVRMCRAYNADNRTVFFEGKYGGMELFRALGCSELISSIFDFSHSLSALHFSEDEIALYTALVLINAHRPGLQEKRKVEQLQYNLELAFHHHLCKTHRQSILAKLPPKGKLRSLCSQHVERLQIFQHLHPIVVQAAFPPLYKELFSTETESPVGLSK
- protocolDetails: Inhibition of human GAL4-fused RORgammat LBD transfected in Escherichia coli BL21(DE3) cell measured after 16 hrs by HTRF assay
attributeMeasured: pIC50
Numbers only, as −log10 of the molar value.

For the compound shown here, O=C(O)c1ccc(-c2nn(C(=O)c3c(Cl)cccc3C(F)(F)F)c3cccnc23)c(F)c1 , give the reported pIC50.
8.70

###

- protocolDetails: Half life in mouse
- Type: ADME, organism-based
- measurementContext: in vivo
attributeMeasured: half-life

# input molecule: COc1ccc2c(n1)CCN(C(=O)[C@H]1C[C@@H](CC(=O)O)C1)[C@H]2C(=O)Nc1cc(F)c2c(c1)CCC2(C)C ; wanted: its half-life
> 4 h

###

- targetOrSystem: Nuclear receptor ROR-gamma (Homo sapiens)
- protocolDetails: Inhibition of RORgammat LBD (unknown origin) expressed in Sf21 cells assessed as fluorescence signal by TR-FRET assay
attributeMeasured: IC50

Tell me the measured IC50 of COc1cc2c(cc1N1CCOCC1)CC(Cc1cccc(C(F)(F)F)c1)C2=O (stereo unspecified) , please.
< 500 nM

###

- protocolDetails: cells
- measurementContext: Homo sapiens, PBMC, 96 h
- Description: Inhibition of IL17 production in human PBMC cells measured after 4 days by enzyme-linked immunosorbent assay
attributeMeasured: pIC50
Give bare numbers, as −log10 of the molar value.

Find the recorded pIC50 belonging to O=C(O)c1ccc(-c2nn(C(=O)c3c(Cl)cccc3C(F)(F)F)c3ccccc23)cc1 and report it.
7.40

###

- protocolDetails: Solubility of the compound
- Format: physicochemical
Please provide measured solubility for the entries that follow.

CC(=O)N1Cc2cc(S(C)(=O)=O)ccc2[C@@H]1C(=O)Nc1ccc(C(O)(C(F)(F)F)C(F)(F)F)cc1    380 µM

The record that follows has no solubility shown yet.
Requested field: solubility. Item: CCS(=O)(=O)c1ccc(CNC(=O)c2cnc3c(c2)CN(C[C@H]2CC[C@H](C(F)(F)F)CC2)[C@H]3C(C)C)nc1
17 µM

###

- protocolDetails: Unbound fraction in rat blood
- Assay type: ADME, tissue-based
attributeMeasured: fraction unbound
One number for each entry.

Fill blank: measured fraction unbound of the compound Cc1ncc(C(=O)Nc2cn3ccnc3c(CN3CCN(C(=O)C4CCCC4)[C@@H](C)C3)c2C)cn1 is ____.
0.256

###

- protocolDetails: Plasma clearance in rat
- Assay type: ADME
attributeMeasured: clearance (mL/min/kg)
Give bare numbers, in mL/min/kg.

Endpoint output: clearance of O=C(O)c1ccc(-c2nn(C(=O)c3c(Cl)cccc3C3(C(F)(F)F)CC3)c3cccnc23)c(F)c1 . Value?
5

###

- targetOrSystem: hERG (KCNH2) (Homo sapiens)
- Sequence (Q12809 whole entry): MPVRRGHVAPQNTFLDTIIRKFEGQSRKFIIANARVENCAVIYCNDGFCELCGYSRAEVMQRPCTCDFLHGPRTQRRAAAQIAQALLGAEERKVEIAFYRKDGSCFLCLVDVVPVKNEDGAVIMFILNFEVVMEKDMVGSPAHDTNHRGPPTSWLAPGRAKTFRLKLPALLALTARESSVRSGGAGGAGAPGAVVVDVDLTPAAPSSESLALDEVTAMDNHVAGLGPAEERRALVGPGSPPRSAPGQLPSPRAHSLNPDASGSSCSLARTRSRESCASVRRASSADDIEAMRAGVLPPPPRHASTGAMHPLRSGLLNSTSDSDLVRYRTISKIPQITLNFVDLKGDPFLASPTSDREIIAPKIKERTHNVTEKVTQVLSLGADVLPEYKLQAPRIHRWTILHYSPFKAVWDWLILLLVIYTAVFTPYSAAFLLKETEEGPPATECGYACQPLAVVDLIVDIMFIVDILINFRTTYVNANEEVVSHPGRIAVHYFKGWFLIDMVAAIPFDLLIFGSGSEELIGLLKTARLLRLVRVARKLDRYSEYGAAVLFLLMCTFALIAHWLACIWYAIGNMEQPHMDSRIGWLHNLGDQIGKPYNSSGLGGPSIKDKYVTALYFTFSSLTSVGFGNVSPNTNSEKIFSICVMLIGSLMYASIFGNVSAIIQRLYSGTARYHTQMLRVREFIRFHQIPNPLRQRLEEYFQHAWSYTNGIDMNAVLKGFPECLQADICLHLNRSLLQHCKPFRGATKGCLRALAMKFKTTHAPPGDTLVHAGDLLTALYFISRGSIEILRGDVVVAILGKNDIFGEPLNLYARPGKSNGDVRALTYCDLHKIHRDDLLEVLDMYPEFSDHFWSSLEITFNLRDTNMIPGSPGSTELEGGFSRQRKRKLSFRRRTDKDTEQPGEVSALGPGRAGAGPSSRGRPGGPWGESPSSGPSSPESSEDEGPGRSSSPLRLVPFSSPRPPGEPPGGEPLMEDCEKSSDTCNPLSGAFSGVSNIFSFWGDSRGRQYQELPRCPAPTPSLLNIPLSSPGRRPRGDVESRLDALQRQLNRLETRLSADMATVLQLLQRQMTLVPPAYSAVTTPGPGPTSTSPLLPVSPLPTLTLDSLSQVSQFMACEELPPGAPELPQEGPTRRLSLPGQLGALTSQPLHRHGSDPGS
- protocolDetails: Inhibition of human ERG at 3 uM relative to control
- Format: toxicity
attributeMeasured: inhibition at 3 µM (%)
One number for each entry, in %.

So what does the record say about inhibition at 3 µM for CC[C@H]1c2ncc(C(=O)N[C@@H](CO)c3ccc(S(=O)(=O)CC)cn3)cc2CN1C[C@H]1CC[C@H](C(F)(F)F)CC1 ?
7.7
